Tested on: C. tropicalis
ASSAY_PROTOCOL: MFC determination
Type: cell-based
CONDITION_SUMMARY: C. tropicalis; kills 90% of strains
Recorded MFC90, one value per entry.
# unit: µg/mL | format: bare number

C[C@@H]1[C@H](O)[C@@H](C)/C=C/C=C/C=C/C=C/C=C/C=C/C=C/[C@H](O[C@@H]2O[C@H](C)[C@@H](O)[C@H](N)[C@@H]2O)C[C@@H]2O[C@](O)(C[C@@H](O)C[C@@H](O)[C@H](O)CC[C@@H](O)C[C@@H](O)CC(=O)O[C@H]1C)C[C@H](O)[C@H]2C(=O)O 1

Would you kindly look at the next entry?
In: Query (molecule): `C[C@@H]1[C@H](O)[C@@H](C)/C=C/C=C/C=C/C=C/C=C/C=C/C=C/[C@H](O[C@@H]2O[C@H](C)[C@@H](O)[C@H](N)[C@@H]2O)C[C@@H]2O[C@](O)(C[C@@H](O)[C@H](O)CC[C@@H](O)C[C@@H](O)C[C@@H](O)CC(=O)O[C@H]1C)C[C@H](O)[C@H]2C` ; field requested: MFC90
Out: 8

---

# MFC90 listing for each entry below
Test system: individual Aspergillus spp. (Table 12, species not named)
ASSAY_PROTOCOL: MFC determination, Table 12
Assay type: cell-based
CONDITION_SUMMARY: Aspergillus sp. of Table 12; kills 90% of strains

Before answering, review these 4 worked examples.
COMPOUND	MFC90
C[C@@H]1[C@H](O)[C@@H](C)/C=C/C=C/C=C/C=C/C=C/C=C/C=C/[C@H](O[C@@H]2O[C@H](C)[C@@H](O)[C@H](N)[C@@H]2O)C[C@@H]2O[C@](O)(C[C@@H](O)[C@H](O)CC[C@@H](O)C[C@@H](O)C[C@@H](O)CC(=O)O[C@H]1C)C[C@H](O)[C@H]2C [Compound 1A]	> 4 µg/mL
CC[C@H](C)C[C@H](C)CCCCCCCCC(=O)N[C@H]1C[C@@H](O)[C@@H](NCCN)NC(=O)[C@@H]2[C@@H](O)CCN2C(=O)[C@H]([C@H](O)CCN)NC(=O)[C@H]([C@H](O)[C@@H](O)c2ccc(O)cc2)NC(=O)[C@@H]2C[C@@H](O)CN2C(=O)[C@H]([C@@H](C)O)NC1=O [Caspofungin, caspofungin]	> 32 µg/mL
C[C@@H](c1ncncc1F)[C@](O)(Cn1cncn1)c1ccc(F)cc1F [Voriconazole, voriconazole]	> 16 µg/mL
OC(Cn1cncn1)(Cn1cncn1)c1ccc(F)cc1F [Fluconazole, fluconazole]	> 64 µg/mL

Now take the following compound into account.
In: What value of measured MFC90 is listed for C[C@@H]1[C@H](O)[C@@H](C)/C=C/C=C/C=C/C=C/C=C/C=C/C=C/[C@H](O[C@@H]2O[C@H](C)[C@@H](O)[C@H](N)[C@@H]2O)C[C@@H]2O[C@](O)(C[C@@H](O)C[C@@H](O)[C@H](O)CC[C@@H](O)C[C@@H](O)CC(=O)O[C@H]1C)C[C@H](O)[C@H]2C(=O)O [Amphotericin B] ?
Out: > 32 µg/mL

---

Test system: all Aspergillus strains tested
ASSAY_PROTOCOL: MIC testing (CLSI M38-A2), summary
Type: cell-based
CONDITION_SUMMARY: caspofungin read as MEC, in µg/mL
PROPERTY_MEASURED: MIC Range

CC[C@H](C)C[C@H](C)CCCCCCCCC(=O)N[C@H]1C[C@@H](O)[C@@H](NCCN)NC(=O)[C@@H]2[C@@H](O)CCN2C(=O)[C@H]([C@H](O)CCN)NC(=O)[C@H]([C@H](O)[C@@H](O)c2ccc(O)cc2)NC(=O)[C@@H]2C[C@@H](O)CN2C(=O)[C@H]([C@@H](C)O)NC1=O 0.125-8

In: Look at this compound and give its reported MIC Range. `C[C@@H]1[C@H](O)[C@@H](C)/C=C/C=C/C=C/C=C/C=C/C=C/C=C/[C@H](O[C@@H]2O[C@H](C)[C@@H](O)[C@H](N)[C@@H]2O)C[C@@H]2O[C@](O)(C[C@@H](O)[C@H](O)CC[C@@H](O)C[C@@H](O)C[C@@H](O)CC(=O)O[C@H]1C)C[C@H](O)[C@H]2C`
Out: 0.5-4

In: Reported MIC Range, compound `C[C@@H]1[C@H](O)[C@@H](C)/C=C/C=C/C=C/C=C/C=C/C=C/C=C/[C@H](O[C@@H]2O[C@H](C)[C@@H](O)[C@H](N)[C@@H]2O)C[C@@H]2O[C@](O)(C[C@@H](O)C[C@@H](O)[C@H](O)CC[C@@H](O)C[C@@H](O)CC(=O)O[C@H]1C)C[C@H](O)[C@H]2C(=O)O` : ____
Out: 0.25-16

In: Would you mind telling me what MIC Range value was observed for `C[C@@H](c1ncncc1F)[C@](O)(Cn1cncn1)c1ccc(F)cc1F` ?
Out: 0.06-8

Numbers sourced from patent US20230138395A1.
